Quick reference for pIC50 among some compounds
- Assayed target: Human Kv1.5 channels (Homo sapiens)
- Sequence (P22460 whole entry): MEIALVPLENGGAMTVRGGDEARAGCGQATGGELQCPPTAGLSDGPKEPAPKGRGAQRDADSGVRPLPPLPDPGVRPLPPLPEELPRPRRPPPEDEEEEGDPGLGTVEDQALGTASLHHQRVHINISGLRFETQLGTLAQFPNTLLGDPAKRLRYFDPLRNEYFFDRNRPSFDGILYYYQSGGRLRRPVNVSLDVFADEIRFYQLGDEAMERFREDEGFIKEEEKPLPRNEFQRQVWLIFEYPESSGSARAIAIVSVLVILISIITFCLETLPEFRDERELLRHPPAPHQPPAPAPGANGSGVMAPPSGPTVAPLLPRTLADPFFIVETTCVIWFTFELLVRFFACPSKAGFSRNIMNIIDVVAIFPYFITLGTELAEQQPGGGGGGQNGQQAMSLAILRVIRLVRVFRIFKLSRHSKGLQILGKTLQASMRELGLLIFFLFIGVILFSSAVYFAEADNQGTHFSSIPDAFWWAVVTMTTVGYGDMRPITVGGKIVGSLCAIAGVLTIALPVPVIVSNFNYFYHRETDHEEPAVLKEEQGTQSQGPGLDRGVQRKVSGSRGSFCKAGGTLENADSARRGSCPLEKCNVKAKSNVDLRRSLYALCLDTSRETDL
- Test: Activity on the Kv1.5 channel: two-microelectrode voltage clamp on Xenopus oocytes expressing Kv1.5
- Test settings: human Kv1.5 expressed in Xenopus oocytes, room temperature, Hill equation; read-out: Kv1.5 IC-50
- Protocol: Determination of the Activity on the Kv1.5 Channel Human Kv1.5 channels were expressed in xenopus oocytes. For this purpose, firstly oocytes were isolated from Xenopus laevis and defolliculated. […] After Kv1.5 protein expression for 1-7 days, Kv1.5 currents were measured on the oocytes using the two-microelectrode voltage clamp technique. […] The effects of the substances were calculated as percent inhibition of the Kv1.5 control current which was obtained when no substance was added to the solution. […]
pIC50: −log10 of the molar value.
Measure name: pIC50

O=C1CCCN1[C@@H](c1ccc(F)cc1)[C@H](OCCCC(F)(F)F)C1CCCCC1 (racemic): 6.19
CCCOC(c1ccc(OC)cc1)C(c1ccccc1)N1CCCC1=O (stereo not drawn): 6.19
O=C1CCCCN1[C@@H](c1ccc(F)cc1)[C@@H](OCC1CC1)c1cccc2cccnc12 (racemic): 5.85
N#Cc1ccc(O[C@H](c2ccc(OC(F)(F)F)cc2)[C@H](c2ccc(F)cc2)N2CCCC2=O)cc1 (racemic): 5.05
O=C1CCCN1[C@H](c1ccc(F)cc1)[C@H](OCC1CC1)c1ccc(F)cc1 (racemic): 6.22
O=C1CCCN1[C@H](c1ccc(F)cc1)[C@H](OCCCC(F)(F)F)c1ccc(F)cc1 (racemic): 5.85
O=C1CCCN1[C@@H](c1ccc(F)cc1)[C@H](OC1CC1)c1ccc(F)c(F)c1 (racemic): 6.30
Cc1ccc([C@H]([C@H](OCC2CC2)c2ccc(F)cc2)N2CCCC2=O)s1 (racemic): 6.52
C=CO[C@H](c1ccccc1)[C@H](c1ccccc1)N1CCCC1=O: 6.10
C#CCO[C@H](c1ccc(F)c(F)c1)[C@H](c1ccc(F)cc1)N1CCCCC1=O (racemic): 5.96
O=S1(=O)CCCN1[C@H](c1ccccc1)[C@@H](OCC1CC1)c1ccccc1: 5.70
O=C1CCCN1[C@@H](c1ccc(F)cc1)[C@@H](OCC1CC1)c1cccc2cccnc12 (racemic): 5.85
COc1ccc(CO[C@H](c2ccc(F)c(F)c2)[C@H](c2cccnc2)N2CCCC2=O)cc1 (racemic): 5.49
O=C1CCCN1[C@H](c1ccc(F)cc1)[C@H](OCC1CC1)c1cccc2ccccc12 (racemic): 6.30
N#Cc1ccc(CO[C@H](c2ccc(F)c(F)c2)[C@H](c2ccc(F)cc2)N2CCCC2=O)cc1 (racemic): 5.80
O=C1CCCN1[C@@H](c1cccnc1)[C@H](OCCCC(F)(F)F)c1ccc(F)cc1 (racemic): 5.82
O=C1CCCN1[C@@H](c1ccccc1)[C@H](OCc1ccc(Cl)cc1)c1ccc(Cl)cc1 (racemic): 6.00
O=C1CCCN1[C@@H](c1ccccn1)[C@H](OCC1CC1)c1ccccc1 (racemic): 5.89
O=C1CCCN1[C@@H](c1ccccc1)[C@H](OCc1cccc(Cl)c1)c1ccc(Cl)cc1 (racemic): 6.10
O=C1CCCN1[C@@H](c1ccc(F)cc1)[C@H](OCC1CC1)c1cc(F)cc(F)c1 (racemic): 6.15
C[C@](c1ccccc1)([C@H](OCC1CC1)c1ccccc1)N1CCCC1=O (racemic): 6.05
O=C1CCCN1[C@@H](c1ccccc1)[C@H](OCC1CC1)c1ccc(F)cc1 (racemic): 6.30
N#Cc1ccc(O[C@H](c2ccc(F)c(F)c2)[C@H](c2ccc(F)cc2)N2CCCCC2=O)cc1 (racemic): 5.02
O=C1CCCN1[C@H](c1ccc(F)cc1)[C@@H](OCC1CC1)c1cccc2ccccc12 (racemic): 6.70
N#Cc1ccc([C@@H](OCC2CC2)[C@H](c2ccc(F)cc2)N2CCCC2=O)cc1 (racemic): 6.00
CO[C@H](c1ccc(F)cc1)[C@H](c1ccc(F)cc1)N1CCCC1=O (racemic): 5.47
N#Cc1ccc(O[C@H](c2ccc(F)c(F)c2)[C@H](c2ccc(F)cc2)N2CCCC2=O)cc1 (racemic): 5.41
O=C1CCCN1[C@@H](c1ccc(F)cc1)[C@H](OCC1CC1)C1CCCCC1 (racemic): 5.74
N#Cc1ccc(O[C@@H](c2cccc3cccnc23)[C@@H](c2ccc(F)cc2)N2CCCC2=O)cc1 (racemic): 5.38
